- experimental.system: Cytochrome P450 3A4 (Homo sapiens)
- Sequence (P08684 whole entry): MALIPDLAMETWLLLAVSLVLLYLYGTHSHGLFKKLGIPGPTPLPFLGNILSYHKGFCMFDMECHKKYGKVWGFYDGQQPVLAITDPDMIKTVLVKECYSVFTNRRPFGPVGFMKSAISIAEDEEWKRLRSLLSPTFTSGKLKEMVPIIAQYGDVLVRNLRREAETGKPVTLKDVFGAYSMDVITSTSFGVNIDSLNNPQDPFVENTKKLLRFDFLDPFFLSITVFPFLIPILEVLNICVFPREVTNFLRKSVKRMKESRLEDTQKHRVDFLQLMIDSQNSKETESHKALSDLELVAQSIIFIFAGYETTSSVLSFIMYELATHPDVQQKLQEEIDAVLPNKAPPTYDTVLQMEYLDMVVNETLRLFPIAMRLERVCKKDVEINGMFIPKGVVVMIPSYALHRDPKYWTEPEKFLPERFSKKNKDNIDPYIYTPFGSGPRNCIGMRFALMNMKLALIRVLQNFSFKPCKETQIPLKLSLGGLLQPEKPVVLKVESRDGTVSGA
recorded.endpoint: IC50 (µM)
Give the value, in units of µM, as a plain number.

Prompt: Find the recorded IC50 belonging to CNc1noc2c(-c3ccc4c(N5CCOC[C@@H]5C)nncc4c3)c(Cl)ccc12 and report it.
Completion: 6

Prompt: Find the recorded IC50 belonging to Cc1ccc2c(N)nsc2c1-c1ccc2c(N3CCOC[C@@H]3C)nncc2c1 and report it.
Completion: 4

Prompt: Find the recorded IC50 belonging to Cc1ccc2c(NC3CC3)noc2c1-c1ccc2c(NC(C)C)nncc2c1 and report it.
Completion: 5.6

---

- protocol.text: Elimination half life in Sprague-Dawley rat at 2 mg/kg, iv
- Assay type: ADME, organism-based
- Set-up: dose 2 mg/kg, route intravenous
- particulars: in vivo
recorded.endpoint: half-life
Just so you know, I need the unit written after the number.

Prompt: Find the recorded half-life belonging to CNc1noc2c(-c3ccc4c(N5CCOC[C@@H]5C)nncc4c3)c(C)ccc12 and report it.
Completion: 2.8 h

---

recorded.endpoint: IC50

Prompt: Recall the recorded IC50 for CNc1noc2c(-c3ccc4c(N5CCOC[C@@H]5C)nncc4c3)c(C)ccc12 with Voltage-gated inwardly rectifying potassium channel KCNH2 (Homo sapiens, UniProt Q12809) and state it.
Sequence (Q12809 whole entry): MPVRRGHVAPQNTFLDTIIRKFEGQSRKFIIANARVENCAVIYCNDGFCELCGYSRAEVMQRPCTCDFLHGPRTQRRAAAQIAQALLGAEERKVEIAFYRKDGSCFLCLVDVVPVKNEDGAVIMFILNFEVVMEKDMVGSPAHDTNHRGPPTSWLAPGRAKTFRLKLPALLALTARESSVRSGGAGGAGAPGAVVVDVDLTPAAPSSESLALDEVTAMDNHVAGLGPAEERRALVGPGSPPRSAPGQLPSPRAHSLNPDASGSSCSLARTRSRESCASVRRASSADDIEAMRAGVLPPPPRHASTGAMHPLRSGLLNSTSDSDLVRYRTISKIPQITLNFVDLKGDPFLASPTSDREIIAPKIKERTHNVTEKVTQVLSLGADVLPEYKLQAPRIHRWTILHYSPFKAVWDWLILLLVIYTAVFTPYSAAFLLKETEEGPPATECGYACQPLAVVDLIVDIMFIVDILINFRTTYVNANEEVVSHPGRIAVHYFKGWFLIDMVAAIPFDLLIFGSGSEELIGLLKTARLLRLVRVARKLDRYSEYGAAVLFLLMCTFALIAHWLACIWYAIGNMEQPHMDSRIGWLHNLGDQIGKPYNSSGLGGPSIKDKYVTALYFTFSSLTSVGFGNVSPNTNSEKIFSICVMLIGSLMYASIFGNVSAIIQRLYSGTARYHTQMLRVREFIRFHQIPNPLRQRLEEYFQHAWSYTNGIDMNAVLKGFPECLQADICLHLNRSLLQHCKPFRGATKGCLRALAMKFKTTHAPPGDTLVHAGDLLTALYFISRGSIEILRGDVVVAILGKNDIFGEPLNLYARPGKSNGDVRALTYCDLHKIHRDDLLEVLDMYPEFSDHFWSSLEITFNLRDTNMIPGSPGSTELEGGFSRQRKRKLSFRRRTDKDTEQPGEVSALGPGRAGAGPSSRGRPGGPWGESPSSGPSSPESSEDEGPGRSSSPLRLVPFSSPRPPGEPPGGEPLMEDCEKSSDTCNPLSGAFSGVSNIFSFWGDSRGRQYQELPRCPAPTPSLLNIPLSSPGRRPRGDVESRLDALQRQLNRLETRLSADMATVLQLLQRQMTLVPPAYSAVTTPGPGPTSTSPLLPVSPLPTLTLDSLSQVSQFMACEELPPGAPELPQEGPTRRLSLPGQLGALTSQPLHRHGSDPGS
Completion: 13 µM

---

- experimental.system: Mitogen-activated protein kinase 14 (Homo sapiens, UniProt Q16539)
- Sequence (Q16539 whole entry): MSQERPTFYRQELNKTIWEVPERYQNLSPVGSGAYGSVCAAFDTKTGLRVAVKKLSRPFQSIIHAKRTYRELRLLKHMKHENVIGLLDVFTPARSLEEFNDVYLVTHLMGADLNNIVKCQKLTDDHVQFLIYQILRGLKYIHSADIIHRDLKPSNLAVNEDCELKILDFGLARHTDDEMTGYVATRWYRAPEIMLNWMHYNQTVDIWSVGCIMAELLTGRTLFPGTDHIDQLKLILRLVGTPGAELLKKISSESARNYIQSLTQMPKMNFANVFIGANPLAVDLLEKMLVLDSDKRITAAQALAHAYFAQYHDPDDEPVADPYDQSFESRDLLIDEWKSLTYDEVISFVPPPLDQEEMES
- protocol.text: Inhibition of human recombinant GST-tagged p38alphaMAPK-induced ATF2 phosphorylation
Hi! Could you tag entries with Ki below 0.4 nM as Yes, and those at or above as No? Much appreciated.

Prompt: Is Ki strictly under 0.4 nM for the entry CNc1noc2c(-c3ccc4c(NC(C)C)nncc4c3)c(C)ccc12 ?
Completion: No

Prompt: Is Ki strictly under 0.4 nM for the entry CNc1noc2c(-c3ccc4c(N5CCOC[C@@H]5C)nncc4c3)c(Cl)ccc12 ?
Completion: Yes

Prompt: Is Ki strictly under 0.4 nM for the entry Cc1ccc2c(N)noc2c1-c1ccc2c(N3CCOC[C@@H]3C)nncc2c1 ?
Completion: Yes

Prompt: Is Ki strictly under 0.4 nM for the entry CCNc1noc2c(-c3ccc4c(N5CCOC[C@@H]5C)nncc4c3)c(C)ccc12 ?
Completion: Yes

Prompt: Is Ki strictly under 0.4 nM for the entry CNc1noc2c(-c3ccc4c(C(C)C)nncc4c3)c(C)ccc12 ?
Completion: No

Prompt: Is Ki strictly under 0.4 nM for the entry Cc1ccc2c(NC3CC3)noc2c1-c1ccc2c(NC(C)C)nncc2c1 ?
Completion: No

---

- experimental.system: Mitogen-activated protein kinase 14 (Homo sapiens, UniProt Q16539)
- protocol.text: Inhibition of human recombinant GST-tagged p38alphaMAPK-induced ATF2 phosphorylation
pKi: −log10 of the molar value.
Kindly return yes if reported pKi is no lower than 9; return no if it is lower.

Prompt: Does the reported pKi for CC[C@H](C)Nc1nncc2cc(-c3c(C)ccc4c(NC)noc34)ccc12 fall at or above the 9 mark?
Completion: yes

Prompt: Does the reported pKi for CNc1noc2c(-c3ccc4c(OC(C)C)nncc4c3)c(C)ccc12 fall at or above the 9 mark?
Completion: yes

Prompt: Does the reported pKi for CNc1noc2c(-c3ccc4c(N5CCOC[C@@H]5C)nncc4c3)c(C)ccc12 fall at or above the 9 mark?
Completion: yes

Prompt: Does the reported pKi for CNc1noc2c(-c3ccc4c(N5CCOC[C@H]5C)nncc4c3)c(C)ccc12 fall at or above the 9 mark?
Completion: yes

Prompt: Does the reported pKi for Cc1ccc2c(N)n[nH]c2c1-c1ccc2c(N3CCOC[C@@H]3C)nncc2c1 fall at or above the 9 mark?
Completion: no

Prompt: Does the reported pKi for CC(C)Nc1noc2c(-c3ccc4c(N5CCOC[C@@H]5C)nncc4c3)c(Cl)ccc12 fall at or above the 9 mark?
Completion: yes

Prompt: Does the reported pKi for Cc1ccc2c(N)nsc2c1-c1ccc2c(N3CCOC[C@@H]3C)nncc2c1 fall at or above the 9 mark?
Completion: no

---

- experimental.system: Mitogen-activated protein kinase 11 (Homo sapiens)
- Sequence (Q15759 whole entry): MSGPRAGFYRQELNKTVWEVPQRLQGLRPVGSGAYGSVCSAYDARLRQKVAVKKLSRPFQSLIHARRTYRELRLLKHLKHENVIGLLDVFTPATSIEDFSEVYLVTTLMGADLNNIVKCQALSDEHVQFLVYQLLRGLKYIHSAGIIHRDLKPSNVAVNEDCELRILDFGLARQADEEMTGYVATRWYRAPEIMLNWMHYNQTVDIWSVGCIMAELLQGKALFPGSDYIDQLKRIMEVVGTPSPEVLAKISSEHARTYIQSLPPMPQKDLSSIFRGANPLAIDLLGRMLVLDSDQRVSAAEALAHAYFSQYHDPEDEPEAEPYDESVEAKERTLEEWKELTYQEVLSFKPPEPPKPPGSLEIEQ
- protocol.text: Inhibition of human recombinant GST-tagged p38beta-induced ATF2 phosphorylation
recorded.endpoint: Ki (nM)
Give the value, in units of nM, as a plain number.

Prompt: Find the recorded Ki belonging to CNc1noc2c(-c3ccc4c(N5CCOC[C@@H]5C)nncc4c3)c(C)ccc12 and report it.
Completion: 1.8

---

- protocol.text: Tmax in Sprague-Dawley rat at 10 mg/kg, po
- Assay type: ADME, organism-based
- Design: dose 10 mg/kg, route oral
- particulars: in vivo
recorded.endpoint: Tmax (h)
Give the value, in units of h, as a plain number.

Prompt: Find the recorded Tmax belonging to CNc1noc2c(-c3ccc4c(N5CCOC[C@@H]5C)nncc4c3)c(C)ccc12 and report it.
Completion: 1.7

---

- protocol.text: Protein binding in human plasma
- Format: ADME, cell-free
- particulars: read-out: PPB (converted)
recorded.endpoint: fraction unbound
Simply state the number, no unit and no words.

Prompt: Find the recorded fraction unbound belonging to CNc1noc2c(-c3ccc4c(N5CCOC[C@@H]5C)nncc4c3)c(C)ccc12 and report it.
Completion: 0.08

---

- protocol.text: Protein binding in Sprague-Dawley rat plasma
- Assay type: ADME, cell-free
- particulars: read-out: PPB (converted)
recorded.endpoint: fraction unbound

Prompt: Find the recorded fraction unbound belonging to CNc1noc2c(-c3ccc4c(N5CCOC[C@@H]5C)nncc4c3)c(C)ccc12 and report it.
Completion: 0.1

---

- protocol.text: Volume of distribution in Sprague-Dawley rat at 2 mg/kg, iv
- Assay type: ADME, organism-based
- Parameters: dose 2 mg/kg, route intravenous
- particulars: in vivo
recorded.endpoint: Vd (L/kg)
Give the value, in units of L/kg, as a plain number.

Prompt: Find the recorded Vd belonging to CNc1noc2c(-c3ccc4c(N5CCOC[C@@H]5C)nncc4c3)c(C)ccc12 and report it.
Completion: 2.4

---

- protocol.text: Concentration of drug level in po dosed collagen-induced arthritis Lewis rat model after 24hrs
- Assay type: ADME, organism-based
- particulars: in vivo, read-out: Drug uptake
recorded.endpoint: concentration at 24 h
Just so you know, I need the unit written after the number.

Prompt: Find the recorded concentration at 24 h belonging to CNc1noc2c(-c3ccc4c(N5CCOC[C@@H]5C)nncc4c3)c(C)ccc12 and report it.
Completion: 0.3 nM

---

I'd be grateful if you could share measured Ki for these entries.
- experimental.system: Mitogen-activated protein kinase 14 (Homo sapiens)
- protocol.text: Inhibition of human recombinant GST-tagged p38alphaMAPK-induced ATF2 phosphorylation
Give the value, in units of nM, as a plain number.

Prompt: Recall the recorded Ki for CC(=O)N1CCN(c2nncc3cc(-c4c(C)ccc5c(NC6CC6)noc45)ccc23)[C@@H](C)C1 with Mitogen-activated protein kinase 14 (Homo sapiens) and state it.
Completion: 0.8

Prompt: Recall the recorded Ki for CC(=O)Nc1noc2c(-c3ccc4c(N5CCOC[C@@H]5C)nncc4c3)c(C)ccc12 with Mitogen-activated protein kinase 14 (Homo sapiens) and state it.
Completion: 0.6

Prompt: Recall the recorded Ki for Cc1ccc2c(NC3CC3)noc2c1-c1ccc2c(N3CCOC[C@@H]3C)nncc2c1 with Mitogen-activated protein kinase 14 (Homo sapiens) and state it.
Completion: 0.7

Data origin, for the record: ChEMBL document CHEMBL1140162
